Target: T1, Soluble CDCP1 extracellular domain (CDCP1-ECD) (SEQ ID NO:30) fused to Streptavidin Binding Protein (SBP) (human, UniProt Q9H5V8 30-663)
T1 construct: also called SBP-CDCP1-ECD
T1 sequence: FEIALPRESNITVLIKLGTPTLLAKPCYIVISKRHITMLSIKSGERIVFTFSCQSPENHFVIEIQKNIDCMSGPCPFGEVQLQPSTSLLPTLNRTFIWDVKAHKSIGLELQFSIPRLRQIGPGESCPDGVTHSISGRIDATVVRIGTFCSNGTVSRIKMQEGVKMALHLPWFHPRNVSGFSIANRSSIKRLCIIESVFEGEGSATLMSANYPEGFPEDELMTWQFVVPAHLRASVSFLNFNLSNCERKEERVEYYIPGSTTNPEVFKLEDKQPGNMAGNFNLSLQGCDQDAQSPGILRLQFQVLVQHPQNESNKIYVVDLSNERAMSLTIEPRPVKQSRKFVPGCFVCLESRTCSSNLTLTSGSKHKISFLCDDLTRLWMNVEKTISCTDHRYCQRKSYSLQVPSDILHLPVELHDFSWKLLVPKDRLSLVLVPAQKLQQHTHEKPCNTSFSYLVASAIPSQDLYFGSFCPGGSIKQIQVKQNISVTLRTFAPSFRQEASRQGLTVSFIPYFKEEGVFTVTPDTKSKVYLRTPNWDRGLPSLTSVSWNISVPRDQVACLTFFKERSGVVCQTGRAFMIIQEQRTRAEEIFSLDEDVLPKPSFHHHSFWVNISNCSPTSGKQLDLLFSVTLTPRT
Test: ELISA on captured SBP-CDCP1-ECD, ratio relative to chimeric CUB4 (chHC4)
QUANTITY: relative binding ratio

Previously resolved entries follow.
>>> assay_value("hHC4-c / hLC4-c (antibody, V domains shown) VH: EVQLVESGGGLVQPGGSLRLSCAASGFTFNSYGMSWVRQAPGKGLEWVATISSGGSYTYYPDSVKGRFTISRDNAKNSLYLQMNSLRAEDTAVYYCARHPDYDGVWFAYWGQGTLVTVSS VL: EIVMTQSPATLSVSPGERATLSCSVSSSVFYVHWYQQKPGQAPRLLIYDTSKLASGIPARFSGSGSGTEFTLTISSLQSEDFAVYYCQQWNSNPPTFGGGTKVEIK")
0.29
>>> assay_value("hHC4-07 / hLC4-K (antibody, V domains shown) VH: EVQLLESGGGLVQPGGSLRLSCAASGFTFNSYAMSWVRQAPGKGLEWVSTISSGGSYTYYPDSVKGRFTISRDNSKNTLYLQMNSLRAEDTAVYYCAKHPDYDGVWFAYWGQGTLVTVSS VL: EIVLTQSPATLSLSPGERATLSCRASSSVFYLHWYQQKPGQAPRLWIYDTSKLASGIPARFSGSGSGTDFTLTISSLEPEDFAVYYCQQWNSNPPTFGGGTKVEIK")
0.1
>>> assay_value("hHC4-d / hLC4-L2 (antibody, V domains shown) VH: EVQLLESGGGLVQPGGSLRLSCAASGFTFNSYGMSWVRQAPGKGLEWVSTISSGGSYTYYPDSVKGRFTISRDNSKNTLYLQMNSLRAEDTAVYYCAKHPDYDGVWFAYWGQGTLVTVSS VL: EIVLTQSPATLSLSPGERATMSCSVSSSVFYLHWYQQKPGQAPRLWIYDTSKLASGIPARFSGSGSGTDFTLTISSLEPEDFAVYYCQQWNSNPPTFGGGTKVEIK")
0.49
>>> assay_value("hHC4-03 / hLC4-b (antibody, V domains shown) VH: EVQLLESGGGLVQPGGSLRLSCAASGFTFNSYGMSWVRQAPGKGLEWVSAISSGGSYTYYPDSVKGRFTISRDNSKNTLYLQMNSLRAEDTAVYYCAKHPDYDGVWFAYWGQGTLVTVSS VL: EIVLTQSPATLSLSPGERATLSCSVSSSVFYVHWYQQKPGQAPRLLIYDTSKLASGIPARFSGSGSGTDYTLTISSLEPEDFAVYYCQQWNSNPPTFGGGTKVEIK")
0.07

Task: State, in one line, measured relative binding ratio of hHC4-04 / hLC4-M (antibody, V domains shown) VH: EVQLLESGGGLVQPGGSLRLSCAASGFTFNSYGMSWVRQAPGKGLEWVSTISSGGSYTYYPDSVKGRFTISRDNSKNTLYLQMNSLRAEDTAVYYCARHPDYDGVWFAYWGQGTLVTVSS VL: EIVLTQSPATLSLSPGERATMSCGASSSVFYLHWYQQKPGLAPRLWIYDTSKLASGIPDRFSGSGSGTDFTLTISRLEPEDFAVYYCQQWNSNPPTFGGGTKVEIK
Result: 0.82

Task: State, in one line, measured relative binding ratio of hHC4-c / hLC4-L (antibody, V domains shown) VH: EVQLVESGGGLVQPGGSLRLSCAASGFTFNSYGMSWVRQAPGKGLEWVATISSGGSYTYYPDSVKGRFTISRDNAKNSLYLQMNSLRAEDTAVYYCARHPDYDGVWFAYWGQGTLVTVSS VL: EIVLTQSPATLSLSPGERATMSCRASSSVFYLHWYQQKPGQAPRLWIYDTSKLASGIPARFSGSGSGTDFTLTISSLEPEDFAVYYCQQWNSNPPTFGGGTKVEIK
Result: 0.45

Task: State, in one line, measured relative binding ratio of Humanized CUB4 Antibody No. 80 (antibody, IgG1, V domains shown, Only variable domains are tied to the antibody; Human constant region, preferably IgG1; also called hHC4-H / hLC-M) VH: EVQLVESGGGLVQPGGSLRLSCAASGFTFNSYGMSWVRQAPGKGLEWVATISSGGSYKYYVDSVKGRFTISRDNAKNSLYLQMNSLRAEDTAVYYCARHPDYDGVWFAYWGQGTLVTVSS VL: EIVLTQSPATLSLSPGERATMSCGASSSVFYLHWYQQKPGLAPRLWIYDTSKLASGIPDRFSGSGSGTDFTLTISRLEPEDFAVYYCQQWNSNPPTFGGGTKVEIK
Result: 0.56

Task: State, in one line, measured relative binding ratio of hHC4-07 / hLC4-e (antibody, V domains shown) VH: EVQLLESGGGLVQPGGSLRLSCAASGFTFNSYAMSWVRQAPGKGLEWVSTISSGGSYTYYPDSVKGRFTISRDNSKNTLYLQMNSLRAEDTAVYYCAKHPDYDGVWFAYWGQGTLVTVSS VL: DIQMTQSPSSLSASVGDRVTITCSVSSSVFYVHWYQQKPGKAPKLLIYDTSKLASGVPSRFSGSGSGTDFTFTISSLQPEDIATYYCQQWNSNPPTFGGGTKVEIK
Result: 0.07

Task: State, in one line, measured relative binding ratio of hHC4-a / hLC4-M (antibody, V domains shown) VH: EVQLVESGGGLVKPGGSLRLSCAASGFTFNSYGMSWVRQAPGKGLEWVSTISSGGSYTYYPDSVKGRFTISRDNAKNSLYLQMNSLRAEDTAVYYCARHPDYDGVWFAYWGQGTLVTVSS VL: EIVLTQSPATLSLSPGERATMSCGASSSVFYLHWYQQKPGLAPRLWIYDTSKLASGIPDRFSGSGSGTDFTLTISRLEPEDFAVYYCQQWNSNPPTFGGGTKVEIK
Result: 0.8

Task: State, in one line, measured relative binding ratio of hHC4-H / hLC4-c (antibody, V domains shown, also called Humanized CUB4 Antibody No. 113) VH: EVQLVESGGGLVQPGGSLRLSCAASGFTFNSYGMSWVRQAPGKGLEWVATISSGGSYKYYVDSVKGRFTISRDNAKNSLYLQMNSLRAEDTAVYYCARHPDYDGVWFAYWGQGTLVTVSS VL: EIVMTQSPATLSVSPGERATLSCSVSSSVFYVHWYQQKPGQAPRLLIYDTSKLASGIPARFSGSGSGTEFTLTISSLQSEDFAVYYCQQWNSNPPTFGGGTKVEIK
Result: 0.44
